- system tested: ERK5 (Homo sapiens, UniProt Q13164)
- Sequence (Q13164 whole entry): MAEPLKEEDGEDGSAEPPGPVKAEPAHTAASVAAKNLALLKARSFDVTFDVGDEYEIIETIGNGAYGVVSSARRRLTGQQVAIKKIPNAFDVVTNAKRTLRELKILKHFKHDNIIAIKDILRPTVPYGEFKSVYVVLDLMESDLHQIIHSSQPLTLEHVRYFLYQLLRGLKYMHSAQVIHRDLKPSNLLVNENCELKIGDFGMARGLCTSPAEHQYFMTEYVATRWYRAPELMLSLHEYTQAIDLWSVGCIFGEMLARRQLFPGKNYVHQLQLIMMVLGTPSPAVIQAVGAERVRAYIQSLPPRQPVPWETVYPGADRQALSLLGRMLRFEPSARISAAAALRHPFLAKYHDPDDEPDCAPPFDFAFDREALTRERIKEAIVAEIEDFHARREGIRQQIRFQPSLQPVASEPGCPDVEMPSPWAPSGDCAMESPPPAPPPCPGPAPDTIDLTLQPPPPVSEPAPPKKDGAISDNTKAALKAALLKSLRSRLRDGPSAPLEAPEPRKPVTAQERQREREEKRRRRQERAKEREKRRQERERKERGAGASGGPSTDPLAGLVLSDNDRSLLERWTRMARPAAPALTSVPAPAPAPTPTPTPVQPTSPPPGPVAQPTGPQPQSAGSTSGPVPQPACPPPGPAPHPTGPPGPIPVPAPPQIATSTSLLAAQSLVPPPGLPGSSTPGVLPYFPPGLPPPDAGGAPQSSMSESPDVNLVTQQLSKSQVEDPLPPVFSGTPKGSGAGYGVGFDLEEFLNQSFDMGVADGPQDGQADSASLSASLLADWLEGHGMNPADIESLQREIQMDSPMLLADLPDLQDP
- test: ERK5 32P-ATP kinase assay
- Assay type: biochemical
- reported conditions: ERK5 kinase assay IC50, 32P-ATP; Table 1
pIC50: −log10 of the molar value.

smiles repr	system tested	pIC50
COc1cc(N2CCN(C)CC2)ccc1Nc1ncc2c(n1)N(C)c1ccccc1C(=O)N2CC(F)(F)F	ERK5 (Homo sapiens, UniProt Q13164)	5.40

----------
IC50 overview
- Test system: PATU-8988T cells
- test: Cell viability, ultra-low adherent 3D-spheroid culture, PATU-8988T
- Format: cell-based, human
- reported conditions: read-out: PATU-8988T cells 3D spheroid culture IC50; cell viability, 120 h
assay metric: IC50

smiles repr	assay metric	recorded value
CCOc1cc(N2CCC(O)CC2)ccc1Nc1ncc2c(n1)N(C)c1ccccc1C(=O)N2C	IC50	6.06 µM
Cc1sc2c(c1C)C(c1ccc(Cl)cc1)=N[C@@H](CC(=O)OC(C)(C)C)c1nnc(C)n1-2	IC50	0.111 µM

----------
- Test system: PANFR0029_T2
- test: Patient-derived pancreatic organoid viability, PANFR0029_T2
- Type: cell-based, human
- reported conditions: read-out: PANFR0029_T2 3D organoid culture IC50; viability, 7 d; DCLK1-negative organoids
pIC50: −log10 of the molar value.

smiles repr	pIC50
Cc1sc2c(c1C)C(c1ccc(Cl)cc1)=N[C@@H](CC(=O)OC(C)(C)C)c1nnc(C)n1-2	6.44
CCOc1cc(N2CCC(O)CC2)ccc1Nc1ncc2c(n1)N(C)c1ccccc1C(=O)N2C	5.15
